Target: zebrafish Vasa, full length (amino acids 1–715), fused to the Venus N-terminal half (zfVasa-VN) (zebrafish)
Assay: split reporter (BiFC, NanoBiT); BiFC with split Venus in living zebrafish embryos: Buc constructs with VC and zfVasa constructs with VN at their C-termini, mRNAs (200 ng/μL) co-injected at the one-cell stage, fluorescence imaged at 3 hpf by confocal microscopy; read-out percent of fluorescent embryos, three independent …
The following binders are listed with their measured percent of fluorescent embryos (BiFC) values.
endpoint: percent of fluorescent embryos (BiFC) (%)

[[record]]
binder = "YPQVTQERQSVLSPSIDELSSRDLMFSTDVEDLEVVPG (domain or fragment) [Buc-VBM (amino acids 363–400) E386L fused to the Venus C-terminal half]"
endpoint = "percent of fluorescent embryos (BiFC)"
readout_value = 48

[[record]]
binder = "YPQVTQERQSVLSPSILELSSRDEMFSTDVEDLEVVPG (domain or fragment) [Buc-VBM (amino acids 363–400) D379L fused to the Venus C-terminal half]"
endpoint = "percent of fluorescent embryos (BiFC)"
readout_value = 36

[[record]]
binder = "YPQVTQERQSVLSPSIDELSSRDEMFATDVEDLEVVPG (domain or fragment) [Buc-VBM (amino acids 363–400) S389A fused to the Venus C-terminal half]"
endpoint = "percent of fluorescent embryos (BiFC)"
readout_value = 43

[[record]]
binder = "YPQVTQERQSVLSPSIDELSSGDEMFSTDVEDLEVVPG (domain or fragment) [Buc-VBM (amino acids 363–400) R384G (non-conserved control) fused to the Venus C-terminal half]"
endpoint = "percent of fluorescent embryos (BiFC)"
readout_value = 63

[[record]]
binder = "YPQVTQERQSVLSPSIDELSSRDEMFSTDVEDLEVVPG (domain or fragment) [Buc amino acids 363–400 fused to the Venus C-terminal half]"
endpoint = "percent of fluorescent embryos (BiFC)"
readout_value = 70


Values from paper PMC8533965
